molecular target: human JAK3 (a.a. 781-1124) (Homo sapiens, UniProt P52333); construct: JAK3 (a.a. 781-1124); His tag (N); made in house; host or cells: insect cells (baculovirus); assay: In vitro JAK kinase assay (HTRF, phosphorylation of a biotinylated peptide), JAK3; type: biochemical; details: Table B1
Sequence (P52333 781-1124): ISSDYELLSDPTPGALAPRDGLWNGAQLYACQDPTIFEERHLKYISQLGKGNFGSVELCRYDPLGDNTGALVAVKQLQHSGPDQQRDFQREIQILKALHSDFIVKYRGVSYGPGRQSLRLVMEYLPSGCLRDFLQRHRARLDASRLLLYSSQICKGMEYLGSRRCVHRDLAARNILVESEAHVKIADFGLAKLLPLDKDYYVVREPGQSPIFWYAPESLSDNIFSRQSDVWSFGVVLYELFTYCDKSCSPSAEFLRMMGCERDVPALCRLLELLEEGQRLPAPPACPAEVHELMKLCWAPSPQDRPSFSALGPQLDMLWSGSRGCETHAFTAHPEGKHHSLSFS
Structures can show the parent of a compound that is named as a salt.
# pIC50 per record follows
Units for pIC50: none; it is -log10 of a concentration expressed in mol/L.

The reported value for O=C(Nc1ccc2cc1CCc1cccc(c1)Nc1ncc(Cl)c(n1)N2)c1ccncc1 [Example B39, bis(trifluoroacetate)] in terms of pIC50 is 8.57

The reported value for CCNC(=O)Nc1ccc2cc1CCc1cccc(c1)Nc1ncc(Cl)c(n1)N2 [Example B115, trifluoroacetate] in terms of pIC50 is 7.54

The reported value for CS(=O)(=O)N1CCC(NC(=O)Nc2ccc3cc2CCc2cccc(c2)Nc2ncc(Cl)c(n2)N3)CC1 [Example B182, trifluoroacetate] in terms of pIC50 is 7.36

The reported value for Cn1cccc1C(=O)Nc1ccc2cc1CCc1cccc(c1)Nc1ncc(Cl)c(n1)N2 [Example B50, trifluoroacetate] in terms of pIC50 is 8.60

The reported value for CNC(=O)Nc1ccc2cc1CCc1cccc(c1)Nc1ncc(Cl)c(n1)N2 [Example B114, trifluoroacetate] in terms of pIC50 is 7.89

The reported value for O=C(Nc1ccc2cc1CCc1cccc(c1)Nc1ncc(Cl)c(n1)N2)Nc1cccc2ccccc12 [Example B124, trifluoroacetate] in terms of pIC50 is 7.48
